Each item that follows carries a reported Percent cleavage.
- experimental-target: AxCT mask27 EpCAM H90.2 L060 version 1

INSERT INTO results (protein, endpoint_label, reported_measurement) VALUES
  ('Neutrophil Elastase (protein) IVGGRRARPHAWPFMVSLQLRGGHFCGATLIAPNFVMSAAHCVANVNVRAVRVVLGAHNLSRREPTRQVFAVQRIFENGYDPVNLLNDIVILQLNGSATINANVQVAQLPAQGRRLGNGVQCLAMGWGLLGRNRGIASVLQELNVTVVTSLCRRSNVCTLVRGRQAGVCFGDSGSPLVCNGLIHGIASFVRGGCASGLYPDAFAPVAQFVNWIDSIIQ', 'Percent cleavage', '7%');

Now look at this entry.
Need Percent cleavage of MMP-1 (protein) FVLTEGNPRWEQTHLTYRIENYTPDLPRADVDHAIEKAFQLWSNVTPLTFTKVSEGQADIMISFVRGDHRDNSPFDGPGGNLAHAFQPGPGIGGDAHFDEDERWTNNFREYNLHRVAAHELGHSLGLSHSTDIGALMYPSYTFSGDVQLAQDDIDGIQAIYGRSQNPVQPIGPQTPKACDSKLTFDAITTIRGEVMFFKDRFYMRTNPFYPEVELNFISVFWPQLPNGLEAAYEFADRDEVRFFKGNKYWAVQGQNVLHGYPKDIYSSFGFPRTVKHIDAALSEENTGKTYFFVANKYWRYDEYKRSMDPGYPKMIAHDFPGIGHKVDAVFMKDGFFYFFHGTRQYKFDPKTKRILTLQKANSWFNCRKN , thanks. 0%

Source of measurements: patent US20240336909
